Target: DCN1-UBC12 interaction (Homo sapiens (Human), UniProt Q96GG9)
Sequence (Q96GG9 60-248 limits assumed): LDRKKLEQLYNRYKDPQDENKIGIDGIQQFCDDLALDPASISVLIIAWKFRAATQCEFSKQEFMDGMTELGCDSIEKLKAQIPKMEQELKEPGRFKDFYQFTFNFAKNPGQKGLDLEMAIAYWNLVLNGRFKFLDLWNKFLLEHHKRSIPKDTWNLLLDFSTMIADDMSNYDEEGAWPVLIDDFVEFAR
Assay: biochemical
Assay type: binding
Details: read-out: TR-FRET IC50
Some compounds, each annotated with its measured pIC50.
Interpret pIC50 as the negative base-10 log of the concentration measured in mol/L.

{"compound": "CCCC(C)N1CCC(N(Cc2cccc(NC(=O)CCl)c2)C(=O)Nc2cccc(C(F)(F)F)c2)CC1 (stereo not drawn) [drawing 842]", "pIC50": 7.02}
{"compound": "CCCC(C)N1CCC(N(Cc2ccccc2)C(=O)Nc2ccc(Cl)c(C(F)(F)F)c2)CC1 (stereo not drawn)", "pIC50": 6.38}
{"compound": "CCCC(C)N1CCC(N(Cc2ccccc2)C(=O)Nc2cccc(OC)c2)CC1 (stereo not drawn)", "pIC50": 5.50}
{"compound": "C=CC(=O)Nc1cccc(CN(C(=O)Nc2cccc(C(F)(F)F)c2)C2CCN(C(C)CCC)CC2)c1 (stereo not drawn) [drawing 840]", "pIC50": 6.96}
{"compound": "CCCC(C)N1CCC(N(Cc2ccccc2)C(=O)Nc2cc(S(F)(F)(F)(F)F)ccc2F)CC1 (stereo not drawn)", "pIC50": 5.69}

Prompt line: Provide one value: measured pIC50 of CCCC(C)N1CCC(N(Cc2ccccc2)C(=O)Nc2ccc(C)c([N+](=O)[O-])c2)CC1 (stereo not drawn)
Response line: 6.69

Prompt line: Return pIC50 (reported value) for this compound: CCCC(C)N1CCC(N(Cc2ccccc2)C(=O)Nc2ccc(Br)cc2)CC1 (stereo not drawn)
Response line: 7.25

Prompt line: Find the measured pIC50 of CCCC(C)N1CCC(N(Cc2ccccc2)C(=O)Nc2ccc(OC)cc2)CC1 (stereo not drawn) and report it.
Response line: 5.12

Prompt line: Consider the compound C#CCCCN1CCC(N(Cc2ccccc2NC(=O)C=C)C(=O)Nc2cccc(C(F)(F)F)c2)CC1 . State its measured pIC50.
Response line: 6.45

###

Target: DCN1-UBC12 interaction (Homo sapiens (Human), UniProt Q96GG9)
Assay: biochemical
Format: binding
Settings: Table 4, commercial compounds; read-out: TR-FRET IC50
pIC50: −log10 of the molar value.
Each entry below lists one item and its recorded pIC50 value.

Example cases with answers are listed next.
{"compound": "COc1ccc(C(=O)N2CCC(C(=O)Nc3cc(OC)ccc3OC)CC2)cc1 [C11]", "value reported": "< 4.31"}
{"compound": "COc1ccc(NC(=O)C2CCN(C(=O)c3cnn(-c4ccccc4)c3-n3cccc3)CC2)cc1 [C49]", "value reported": "< 4.17"}
{"compound": "O=C(Nc1ccc(F)c(Cl)c1)C1CCN(C(=O)c2ccc(Cl)cc2)CC1 [C66]", "value reported": "< 4.12"}

Prompt line: Using the record for COc1ccc(C(=O)N2CCC(C(=O)Nc3ccc(F)c(Cl)c3)CC2)cc1 [C16] , state its measured pIC50.
Response line: < 4.17

Prompt line: Specify measured pIC50 for O=C(Nc1ccc(F)c(Cl)c1)C1CCN(C(=O)c2ccc(Br)cc2)CC1 [C70] .
Response line: < 4.08

Prompt line: Let me know recorded pIC50 for O=C(Nc1ccccc1Br)C1CCN(C(=O)c2ccccc2Cl)CC1 [C17] , thanks.
Response line: < 4.17

Prompt line: Return the recorded pIC50 value; entry: O=C(Nc1cccc(C(F)(F)F)c1)C1CCN(C(=O)c2ccc(F)cc2)CC1 [C2]
Response line: 5.05

Prompt line: Annotate the compound Cc1ccccc1C(=O)N1CCC(C(=O)Nc2c(F)cccc2F)CC1 [C36] with its measured pIC50.
Response line: < 4.17
